test_method_notes: soluble on expression in E. coli; label from the status in PepcDB or PDB records
metric: soluble on expression in E. coli

seq_string	soluble on expression in E. coli
MEQPYVYAYPQGSGPSGAPTPQAGGVVVDPKYCAPYPIDMAIVRKMMSLTDGNFVITDVNGNLLFKVKEPVFGLHDKRVLLDGSGTPVVTLREKMVSMHDRWQVFRGGSTDQRDLLYTVKRSSMLQLKTKLDVFLGHNKDEKRCDFRVKGSWLERSCVVYAGESDAIVAQMHRKHTVQSVFLGKDNFSVTVYPNVDYAFIASLVVILDDVNREDRAA	soluble
MAHHHHHHMSHYLLVTFTFNCPEIRILGPIKEQTIEKLNDVIPNATTTSRSNRTALPKFEYLPNPNHWYIKLDRQFCDEDGKSHLMVLLLDALSEEGSWRLVSSFVTKEPSGTGSKEGTETHTLFLNKLLAEDS	soluble
MSKHKVSPATIAKNKKALHDYTILEKFEAGIVLQGWEVKSIRAGKVQMVDSHVHIKHGEAWLFNCLITPLLSASTHVVADAAATRKLLLNRREINKIMGRIEQKGFTCIPLSMYWKGPRVKVEIALAQGKKVHDKRQAQKDKDWAREKDRLFKKAYK	not soluble
MAHHHHHHMADYEPEDNLEQNSTLSSESIQEDISSLLRTKLAGEQWNPAKVDGWVEDIVNSILTELAELKKPYKYIVTCVFMQRTGAALSVGFISLWDNTKDGMVHVPFENDSFHCLVTVYFLKND	not soluble
MDLFQAMRVYVKVVEAGSLTAAAQACSISTTMVGNHLRALEQRLGVSLLQRTTRRQRLTEFGTAYYERCLEVLGLVAESEQLAEQAQGDPSGTLRITAPLTFGSEVLAPALAGFSLRFPEVKLDLVLTNQRLDMIDNGFDIAIRLGNIPQSSPLIARLMQDYTLTICAAPSYLARHGTPAHPEDLGAHNCLAFSYPAGDEWRTAGTQWRMTGPEGEVLVDVDGSMVANTSAGLYQAACAGMGVVMLPDALVQRDLQEGRLVALLPGYHLPRRPMNLLYVQDRYRLPKVRSFVEYAMGLWGR	not soluble
MNNVLLEVKDLETSLKINNEWLATVENISFELSKGEVLGIVGESGCGKSILSKSIIKLLPEKISKLSNGEVIFDGKRIDTLNEKQLLDIRGNDIAMIFQEPMTALNPVFTIKNQLVESIKSHKKISKKEANKLAKDLLKKVGIARQDEILNSYPHQLSGGMRQRVMIAMAISCSPKLLIADEPTTALDVTIQAQILDLLKELQKETQMAIMMITHDLSVVAEFCDKVLVMYAGQIVEFGGIKEILHNPKHPYTQKLLSTIPKLKEEQKRLETIEGIVPSIQAFHVNKCRFANRCNKKLDICNNQSPKMHVCEDVIVRCHLYKNEYKEI	not soluble

Read the next record carefully.
Lookup: Give soluble on expression in E. coli for the following sequence: MSSKDKKPSKPSSSRGGIRTLSDLNRRSGPDSDSDSDGPQEYYTGGEKSGMLVQDPSKKDDVDEIFNQARQLGAVEGPLEPPPSSRSFTGTGRLLSGENVPTGNQQPEPVVHNIVFWSNGFTIDDGPLRKLDDPENASFLEVNDFHSIRKSECPKELEPADRRAPVHVNLMRKEEKCPERQKRRVSFQGVGRTLGGSNEGSGSSSPVAPDSAPIPIQTEPAPSQSLVIDETVPTTSIQLRLADGTRLVAKFNHHHTVNDIRGFIDSSRPGASLNYQLQTMGFPPKPLTDLTQTIEEAGLANSVVLQKF
Found: soluble

---

test_method_notes: soluble on expression in E. coli; label from the status in PepcDB or PDB records

seq_string	soluble on expression in E. coli
SALKAEGAALDCFEVTLKCEEGEDEEEAMVVAVIPRPEPMLRVTQQEKTPPPRPSPLEAGSDGCEEPKQQVSWEQEFLVGSSPGGSGRALCMVCGAEIRAPSADTARSHILEQHPHTLDLSPSEKSNILEAWSEGVALLQDVRAEQPSPPNSDSGQDAHPDPDANPDAARMPAEIVVLLDSEDNPSLPKRSRPRGLRPLELPAVPATEPGNKKPRGQRWKEPPGEEPVRKKRGRPMTKNLDPDPEPPSPDSPTETFAAPAEVRHFTDGSFPAGFVLQLFSHTQLRGPDSKDSPKDREVAEGGLPRAESPSPAPPPGLRGTLDLQVIRVRMEEPPAVSLLQDWSRHPQGTKRVGAGDTSDWPTVLSESSTTVAGKPEKGNGV	soluble
MQVEQRTLNTAAHPFQITAYWLDQISDFETAVDYPIMIICPGGGFTYHSGREEAPIATRMMAAGMHTVVLNYQLIVGDQSVYPWALQQLGATIDWITTQASAHHVDCQRIILAGFSAGGHVVATYNGVATQPELRTRYHLDHYQGQHAAIILGYPVIDLTAGFPTTSAARNQITTDARLWAAQRLVTPASKPAFVWQTATDESVPPINSLKYVQAMLQHQVATAYHLFGSGIHGLALANHVTQKPGKDKYLNDQAAIWPQLALRWLQEQGLLAGNYLEHHHHHH	soluble
MSLKNIVFDFGGVIVDIDRDKAVQAFIKLGLADADTRLDKYHQTGIFQELEEGKLSADEFRKQLGDLCGRELTMEETKQAWLGFFNEVDLRKLDYILGLRKSYHVYLLSNTNPFVMSWACSPEFSSEGKPLNDYCDKLYLSYQLGHTKPAPEIFDFMIKDSHVIPSETLFVDDGSSNIHIGKELGFETFQPENGADWRQELTVILNSEGHHHHHH	soluble

---

test_method_notes: soluble on expression in E. coli; label from the status in PepcDB or PDB records

seq_string	soluble on expression in E. coli
ASMTTPCITILSGHFPKETIYARKTKELVEEYCSIHGYNFYYEESEPLETEEHALHFRRSWIIQQAAEKFPSTEWFLWLDSDVYVNPKNKNKPITSFIDLSDPNILYHTFHEAPWGSYPINTGVKFVHKDALEIEKIVWSLRNEAPWNTFPYEQKTVYEYVFPRIPGRYIVHDPYTLNCIVKAYPEHVKDALFVHMCGTSRAERDEHMEMVAT	soluble
GSPGLKGDKGIPGDKGAKGESGLPDVASLRQQVEALQGQVQHLQAAFSQYKKVELFPNGQSVGEKIFKTAGFVKPFTEAQLLCTQAGGQLASPRSAAENAALQQLVVAKNEAAFLSMTDSKTEGKFTYPTGESLVYSNWAPGEPNDDGGSEDCVEIFTNGKWNDRACGEKRLVVCEF	soluble

---

test_method_notes: soluble on expression in E. coli; label from the status in PepcDB or PDB records
metric: soluble on expression in E. coli

Would you please look over these solved cases?
seq_string	metric	experimental_result
MKIEKINENKIKVTISIDDLLERNIDLDTLNYNTPAAQELFWDMMEQAEIQFGFDASDSQICVEAIPDPEEGFVIIITKLDEDGEFESIHKYIKNRFRKSDLRVRKRNSRVSSSIVIYFFNNFEDLCSVCQKLRDIYSGESTLYRLKGVYYLVLTKNSWSVANLRSFEPILSEFGTKVSNVSFYEGYLNEHGEKIIEYNAVETINDYFHR	soluble on expression in E. coli	soluble
MLLELIPLLGIHFVLRTARAQSVTQPDIHITVSEGASLELRCNYSYGATPYLFWMERTVEEAFILLVCLKPWRVASSLEKKEKEDESFQLLLGSRYNVLEAHCLLPLIRWLTSGDSLLSAQPHCPQEL	soluble on expression in E. coli	not soluble
MSLRTNEHNFHNIEEEIKHVAVYLRLSRGEDESELDNHKTRLLNRCELNNWSYELYKEIGSGSTIDDRPVMQKLLTDVEKNLYDAVLVVDLDRLSRGNGTDNDRILYSMKVSETLIVVESPYQVLDANNESDEEIILFKGFFARFEFKQINKRMREGKKLAQSRGQWVNSVTPYGYIVNKTTKKLTPSEEEAKVVIMIKDFFFEGKSTSDIAWELNKRKIKPRRATEWRSSSIANILQNEVYVGNIVYNKSVGNKKPSKSKTRVTTPYRRLPEEEWRRVYNAHQPLYSKEEFDRIKQYFECNVKSHKGSEGHHHHHH	soluble on expression in E. coli	soluble
MSQLFVRTGIHFSSSQQALEHIGAEMLARGVVHDSYPAALLEREATFPTGIALEKHAVAIPHCEAIHAKSPAIYLIRPDMPVSFQRADDDGEIDVSLIIALIVENPAAQLKLLRRLFSELQNPHTLEALLAASDDRLPVRFQQLILEPELSAVAS	soluble on expression in E. coli	not soluble
MSFDKQNLIWIDLEMTGLDPEKERIIEIATIVTDKNLNILAEGPVLAVHQSDELLNKMNDWCQKTHSENGLIERIKASKLTERAAELQTLDFLKKWVPKGASPICGNSIAQDKRFLVKYMPDLADYFHYRHLDVSTLKELAARWKPEILEGFKKENTHLALDDIRESIKELAYYREHFMKLDLEHHHHHH	soluble on expression in E. coli	soluble

Lookup: Look up soluble on expression in E. coli of MKWFRFPIAVIGLVLLSGCATQNESATQWLYPPMAVPLQASIQQEVQIARLSQLLQRTDLEPEIRAKMLFERGNYYDSVGLRDLARLDFTQSLSINPAQPDVFNLLGVYYTEAGEFDAAYESFDSTLELDPSNEYAVRNRAIALYYGERPQLALEEITKHYQQDPQDPFRALWLYIIESDIDPTKARTELLERYQQHDEQWGWVLVGLMLDQLSEEVAFKAIIAGSRENELLAQRLTEAYFYLGKRYQMQGELAHALSLYKLAISFNVYEYVEHRYAFLELGRIYQQAREEQLARAKAEAMTQ and report it.
Found: not soluble

Lookup: Using the record for MSLADRLLDIKRIYHEPGIERFPRARAVLERYPDAERVEVLSHQAIPGLYGNEGNVEDWVRNKREVMVIGEKKSLSARRNERSSDWIAPSTANGCAMACSYCYVPRRKGYANPITVFANIEKITGYLERHAARQGAKPEPNQCDPIDWVYDIGENSDCSADAMVSDNVRDLVDLFGRIPNAKASFATKLVNRDLLTYEPRGGTRVRFSLMPAETSRLVDVRTSKISDRIAAIDDFVEAGYEVHLNFSPVIVHENWIADWADLLEQIADQTNDRTRRQLAAEVIFLTHNEGLHDVNLGWHPKGEELLWRPDLQQLKRSQSGQWNVRYKSPWKGKWVQQMTDLVADRLPDCRIRYAEGHHHHHH , state its measured soluble on expression in E. coli.
Found: not soluble
